# maps each entry to its NFκB luc, 58.59 ng/ml, w/o x linker
- study_system: human LTBR on cells (human, UniProt P36941 31-435)
- experimental_details: cell-based or functional assay
Respond with the bare value in RLU.

Look over these answered cases.
binder | observed_measurement
P1AE9452 (antibody, human IgG1, kappa, L234A L235A, V domains shown, human IgG1 PG LALA; from transgenic rabbit immunization; also called LTBR (9452)) VH: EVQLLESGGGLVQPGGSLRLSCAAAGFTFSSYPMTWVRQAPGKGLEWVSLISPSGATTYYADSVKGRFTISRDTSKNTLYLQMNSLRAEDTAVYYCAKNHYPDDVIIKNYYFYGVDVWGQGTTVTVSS VL: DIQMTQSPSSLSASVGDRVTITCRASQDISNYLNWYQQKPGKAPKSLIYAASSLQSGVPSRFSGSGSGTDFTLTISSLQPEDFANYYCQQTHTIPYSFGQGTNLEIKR | 10700
P1AE9457 (antibody, human IgG1, kappa, L234A L235A, V domains shown, human IgG1 PG LALA; from transgenic rabbit immunization; also called LTBR (9457)) VH: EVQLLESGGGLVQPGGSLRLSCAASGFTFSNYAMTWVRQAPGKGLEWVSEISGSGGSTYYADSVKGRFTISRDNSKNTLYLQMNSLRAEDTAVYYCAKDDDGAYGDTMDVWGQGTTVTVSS VL: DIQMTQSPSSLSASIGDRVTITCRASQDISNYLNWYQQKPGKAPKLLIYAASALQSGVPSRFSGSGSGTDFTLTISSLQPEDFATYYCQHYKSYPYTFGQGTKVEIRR | 14100

Return reported NFκB luc, 58.59 ng/ml, w/o x linker; argument: P1AF0079 (antibody, human IgG1, kappa, L234A L235A, V domains shown, human IgG1 PG LALA; from transgenic rabbit immunization; also called LTBR (0079)) VH: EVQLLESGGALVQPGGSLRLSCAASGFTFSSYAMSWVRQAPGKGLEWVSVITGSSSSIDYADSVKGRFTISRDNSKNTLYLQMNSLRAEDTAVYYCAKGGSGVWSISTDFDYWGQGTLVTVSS VL: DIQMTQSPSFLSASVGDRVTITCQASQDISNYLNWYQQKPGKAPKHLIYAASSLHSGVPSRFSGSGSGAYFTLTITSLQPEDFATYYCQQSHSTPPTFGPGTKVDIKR
11600

Reference for the values: patent US20250034269A1
